- SYSTEM: 5HT2A (Homo sapiens)
- Sequence (P28223 whole entry): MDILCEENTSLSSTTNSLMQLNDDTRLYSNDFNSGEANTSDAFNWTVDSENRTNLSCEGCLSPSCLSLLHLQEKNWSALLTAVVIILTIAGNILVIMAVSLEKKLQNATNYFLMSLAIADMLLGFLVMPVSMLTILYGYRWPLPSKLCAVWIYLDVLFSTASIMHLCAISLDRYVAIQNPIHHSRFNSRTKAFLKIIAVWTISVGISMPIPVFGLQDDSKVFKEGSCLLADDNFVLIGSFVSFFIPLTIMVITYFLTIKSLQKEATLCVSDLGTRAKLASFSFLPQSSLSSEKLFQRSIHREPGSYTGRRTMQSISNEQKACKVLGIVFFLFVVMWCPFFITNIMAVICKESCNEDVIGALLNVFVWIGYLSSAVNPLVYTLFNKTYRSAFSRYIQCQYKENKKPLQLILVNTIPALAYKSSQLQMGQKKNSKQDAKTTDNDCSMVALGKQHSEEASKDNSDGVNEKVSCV
- MEASUREMENT_DESCRIPTION: Serotonin 5-HT2A in vitro cellular IPOne agonism assay
- Format: cell-based
- Parameters: host or cells: CHO-K1
- ASSAY_SETUP: CHO-K1 cells, IPOne HTRF; read-out: 5-HT2A IPOne Agonism Activity
pEC50: −log10 of the molar value.
ATTRIBUTE_MEASURED: pEC50

# input compound: C[C@@H](N)Cn1ccc2cncnc21 [Example 26] ; wanted: its pEC50
5.00 to 6.00

And for CN(C)C(C)(C)Cn1ccc2cccc(F)c21 [Example 20] ?
< 5.00

And for CC(C)(N)Cn1ccc2c(F)c(F)ccc21 [Example 41] ?
5.00 to 6.00
